Recorded AUC(0-t) for the following molecules
- Method: Pharmacokinetics studies in rats
- Assay type: in vivo, Sprauge Dawley rats
- Measurement parameters: male, Sprague-Dawley; rat plasma; PO 5 mg/Kg
The reply should be a number in ng·h/mL, with the unit left off.

[[record]]
molecule = "CN(C)C/C=C/C(=O)Nc1cc2c(Nc3ccc(F)c(Cl)c3)ncnc2cc1O[C@H]1CCOC1 [afatinib, reference compound]"
unit_abbreviation = "ng·h/mL"
result_value = 215


Moving on to the next molecule.
The reported value for CN(C)C/C=C/C(=O)Nc1cc2c(Nc3ccc(F)c(Cl)c3)ncnc2cc1OC[C@H]1[C@@H]2COC[C@@H]21 [NT112] in terms of AUC(0-t) is 434

---

Recorded bioavailability for the following compounds
- Method: Pharmacokinetics studies in rats
- Type: in vivo, Sprauge Dawley rats
- Measurement parameters: male, Sprague-Dawley, rat, plasma, po, 5 mg/kg
The reply should be a number in %, with the unit left off.

[[record]]
compound = "CN(C)C/C=C/C(=O)Nc1cc2c(Nc3ccc(F)c(Cl)c3)ncnc2cc1OC[C@H]1[C@@H]2COC[C@@H]21 [NT112]"
result_value = 68


The reported value for CN(C)C/C=C/C(=O)Nc1cc2c(Nc3ccc(F)c(Cl)c3)ncnc2cc1O[C@H]1CCOC1 [afatinib, reference compound] in terms of bioavailability is 44.7

---

- Method: Pharmacokinetics studies in rats
- Assay type: in vivo, Sprauge Dawley rats
- Measurement parameters: male, Sprague-Dawley, plasma; rat; IV 1 mg/Kg (reference)
Recorded bioavailability for the following molecules
The reply should be a number in %, with the unit left off.

[[record]]
molecule = "CN(C)C/C=C/C(=O)Nc1cc2c(Nc3ccc(F)c(Cl)c3)ncnc2cc1OC[C@H]1[C@@H]2COC[C@@H]21"
result_value = 100


Moving on to the next molecule.
The reported value for CN(C)C/C=C/C(=O)Nc1cc2c(Nc3ccc(F)c(Cl)c3)ncnc2cc1O[C@H]1CCOC1 [afatinib, reference compound] in terms of bioavailability is 100

---

- Method: Pharmacokinetics studies in mice
- Assay type: in vivo, CD-1 mice
- Measurement parameters: CD-1, plasma; mouse; PO 5 mg/Kg
Recorded bioavailability for the following compounds

[[record]]
compound = "CN(C)C/C=C/C(=O)Nc1cc2c(Nc3ccc(F)c(Cl)c3)ncnc2cc1OC[C@H]1[C@@H]2COC[C@@H]21"
result_value = "49.7%"


Moving on to the next compound.
The reported value for CN(C)C/C=C/C(=O)Nc1cc2c(Nc3ccc(F)c(Cl)c3)ncnc2cc1O[C@H]1CCOC1 [afatinib, reference compound] in terms of bioavailability is 62%
